- STUDY TARGET: Nuclear receptor ROR-gamma (Homo sapiens)
- ASSAY SUMMARY: qHTS assay to identify small molecule antagonists of the retinoid-related orphan receptor gamma (ROR-gamma) signaling pathway (AID 1159521; also: nearly all actives have a fitted effect of over 50% in size)
- CONDITIONS: Tet-on RORgamma CHO cells, RORE-luciferase, 16 h; series mostly up to 92.4 µM
Results filed as inconclusive are left out. Activity calls are given as the source filed them. Calls follow the shape of the dose curve; as a rule, active = well fitted inhibition curve with a large enough effect in the repeat runs; inconclusive = weak or mixed curves, or effect the other way; inactive = no such curve, though single readings can be large or run the other way.
Outcomes: true = active, false = inactive

COMPOUND: CCc1nn(CCCN2CCN(c3cccc(Cl)c3)CC2)c(=O)n1CCOc1ccccc1
STUDY TARGET: Nuclear receptor ROR-gamma (Homo sapiens)
DISCRETE LABEL: true

COMPOUND: Cc1nc2ccccc2s1
STUDY TARGET: Nuclear receptor ROR-gamma (Homo sapiens)
DISCRETE LABEL: false

COMPOUND: CCCCCCCCSCCO
STUDY TARGET: Nuclear receptor ROR-gamma (Homo sapiens)
DISCRETE LABEL: false

COMPOUND: c1ccc(COCc2ccccc2)cc1
STUDY TARGET: Nuclear receptor ROR-gamma (Homo sapiens)
DISCRETE LABEL: false

COMPOUND: C=CC(=C)CCCC(C)(C)OC(C)=O
STUDY TARGET: Nuclear receptor ROR-gamma (Homo sapiens)
DISCRETE LABEL: false

COMPOUND: O=C(Nc1ccccc1)Nc1ccccc1
STUDY TARGET: Nuclear receptor ROR-gamma (Homo sapiens)
DISCRETE LABEL: false

COMPOUND: O=C(/C=C/c1ccccc1)OCCCc1ccccc1
STUDY TARGET: Nuclear receptor ROR-gamma (Homo sapiens)
DISCRETE LABEL: false

COMPOUND: CC(C)(C)C(=O)O
STUDY TARGET: Nuclear receptor ROR-gamma (Homo sapiens)
DISCRETE LABEL: false

COMPOUND: CCCCCCCCCCCC[N+](C)(C)CC(=O)[O-]
STUDY TARGET: Nuclear receptor ROR-gamma (Homo sapiens)
DISCRETE LABEL: false

COMPOUND: O=C(CS)OCCOC(=O)CS
STUDY TARGET: Nuclear receptor ROR-gamma (Homo sapiens)
DISCRETE LABEL: false

COMPOUND: Cc1nc2ccccn2c(=O)c1CCN1CCC(C(=O)c2ccc(F)cc2)CC1
STUDY TARGET: Nuclear receptor ROR-gamma (Homo sapiens)
DISCRETE LABEL: false

COMPOUND: OC/C(Br)=C(\Br)CO
STUDY TARGET: Nuclear receptor ROR-gamma (Homo sapiens)
DISCRETE LABEL: false

COMPOUND: COCCOC
STUDY TARGET: Nuclear receptor ROR-gamma (Homo sapiens)
DISCRETE LABEL: true

COMPOUND: CCCCC(CC)CNCC(CC)CCCC (stereo unspecified)
STUDY TARGET: Nuclear receptor ROR-gamma (Homo sapiens)
DISCRETE LABEL: false

COMPOUND: CCN(CC)CCNC(=O)c1ccc(NC(C)=O)cc1
STUDY TARGET: Nuclear receptor ROR-gamma (Homo sapiens)
DISCRETE LABEL: false

COMPOUND: c1cnc2c(n1)CCCC2
STUDY TARGET: Nuclear receptor ROR-gamma (Homo sapiens)
DISCRETE LABEL: false

COMPOUND: CC(C)(C)CC(C)(C)c1ccc(OCCO)cc1
STUDY TARGET: Nuclear receptor ROR-gamma (Homo sapiens)
DISCRETE LABEL: true

COMPOUND: NC(=O)N(O)[C@@H]1COc2cc(OCc3ccccc3)ccc21
STUDY TARGET: Nuclear receptor ROR-gamma (Homo sapiens)
DISCRETE LABEL: false

COMPOUND: CO[C@H]1O[C@H](CO)[C@@H](O)[C@H](O)[C@H]1O
STUDY TARGET: Nuclear receptor ROR-gamma (Homo sapiens)
DISCRETE LABEL: false

COMPOUND: O=C(CCCN1CCN(c2ccc(F)cc2)CC1)NC1c2ccccc2CSc2ccccc21 (stereo unspecified)
STUDY TARGET: Nuclear receptor ROR-gamma (Homo sapiens)
DISCRETE LABEL: true

COMPOUND: CCCCC/C(=C\c1ccccc1)CO
STUDY TARGET: Nuclear receptor ROR-gamma (Homo sapiens)
DISCRETE LABEL: false

COMPOUND: Cc1cc2nc3ccc(=[N+](C)C)cc-3sc2cc1N
STUDY TARGET: Nuclear receptor ROR-gamma (Homo sapiens)
DISCRETE LABEL: false

COMPOUND: NC(=O)N(O)[C@@H]1C=C[C@H](Oc2cccc(Oc3ccc(F)cc3)c2)C1
STUDY TARGET: Nuclear receptor ROR-gamma (Homo sapiens)
DISCRETE LABEL: false

COMPOUND: Cc1cc(O)c(C(C)C)cc1Cl
STUDY TARGET: Nuclear receptor ROR-gamma (Homo sapiens)
DISCRETE LABEL: false

COMPOUND: CC[C@@H]([C@H](C)O)n1ncn(-c2ccc(N3CCN(c4ccc(OC[C@@H]5CO[C@@](Cn6cncn6)(c6ccc(F)cc6F)C5)cc4)CC3)cc2)c1=O
STUDY TARGET: Nuclear receptor ROR-gamma (Homo sapiens)
DISCRETE LABEL: true

COMPOUND: CO[C@H]1C=CO[C@@]2(C)Oc3c(C)c(O)c4c(O)c(c5c(c4c3C2=O)=NC2(CCN(CC(C)C)CC2)N=5)NC(=O)/C(C)=C\C=C/[C@H](C)[C@H](O)[C@@H](C)[C@@H](O)[C@@H](C)[C@H](OC(C)=O)[C@@H]1C
STUDY TARGET: Nuclear receptor ROR-gamma (Homo sapiens)
DISCRETE LABEL: true

COMPOUND: COC(=O)c1cc(Cl)ccc1NS(=O)(=O)C(F)(F)F
STUDY TARGET: Nuclear receptor ROR-gamma (Homo sapiens)
DISCRETE LABEL: false

COMPOUND: CC(C)CCCC(=O)O
STUDY TARGET: Nuclear receptor ROR-gamma (Homo sapiens)
DISCRETE LABEL: false

COMPOUND: COc1cc2[nH]c(=O)[nH]c(=O)c2cc1OC
STUDY TARGET: Nuclear receptor ROR-gamma (Homo sapiens)
DISCRETE LABEL: false

COMPOUND: CO[C@@]12[C@H](COC(N)=O)C3=C(C(=O)C(C)=C(N)C3=O)N1C[C@@H]1N[C@@H]12
STUDY TARGET: Nuclear receptor ROR-gamma (Homo sapiens)
DISCRETE LABEL: false

COMPOUND: COc1cc2ncnc(Nc3ccc(F)c(Cl)c3)c2cc1OCCCN1CCOCC1
STUDY TARGET: Nuclear receptor ROR-gamma (Homo sapiens)
DISCRETE LABEL: true

Where do the numbers come from? From PubChem BioAssay (Tox21).
